subject.of.test: WRN (Homo sapiens, UniProt Q14191)
Sequence (Q14191 whole entry): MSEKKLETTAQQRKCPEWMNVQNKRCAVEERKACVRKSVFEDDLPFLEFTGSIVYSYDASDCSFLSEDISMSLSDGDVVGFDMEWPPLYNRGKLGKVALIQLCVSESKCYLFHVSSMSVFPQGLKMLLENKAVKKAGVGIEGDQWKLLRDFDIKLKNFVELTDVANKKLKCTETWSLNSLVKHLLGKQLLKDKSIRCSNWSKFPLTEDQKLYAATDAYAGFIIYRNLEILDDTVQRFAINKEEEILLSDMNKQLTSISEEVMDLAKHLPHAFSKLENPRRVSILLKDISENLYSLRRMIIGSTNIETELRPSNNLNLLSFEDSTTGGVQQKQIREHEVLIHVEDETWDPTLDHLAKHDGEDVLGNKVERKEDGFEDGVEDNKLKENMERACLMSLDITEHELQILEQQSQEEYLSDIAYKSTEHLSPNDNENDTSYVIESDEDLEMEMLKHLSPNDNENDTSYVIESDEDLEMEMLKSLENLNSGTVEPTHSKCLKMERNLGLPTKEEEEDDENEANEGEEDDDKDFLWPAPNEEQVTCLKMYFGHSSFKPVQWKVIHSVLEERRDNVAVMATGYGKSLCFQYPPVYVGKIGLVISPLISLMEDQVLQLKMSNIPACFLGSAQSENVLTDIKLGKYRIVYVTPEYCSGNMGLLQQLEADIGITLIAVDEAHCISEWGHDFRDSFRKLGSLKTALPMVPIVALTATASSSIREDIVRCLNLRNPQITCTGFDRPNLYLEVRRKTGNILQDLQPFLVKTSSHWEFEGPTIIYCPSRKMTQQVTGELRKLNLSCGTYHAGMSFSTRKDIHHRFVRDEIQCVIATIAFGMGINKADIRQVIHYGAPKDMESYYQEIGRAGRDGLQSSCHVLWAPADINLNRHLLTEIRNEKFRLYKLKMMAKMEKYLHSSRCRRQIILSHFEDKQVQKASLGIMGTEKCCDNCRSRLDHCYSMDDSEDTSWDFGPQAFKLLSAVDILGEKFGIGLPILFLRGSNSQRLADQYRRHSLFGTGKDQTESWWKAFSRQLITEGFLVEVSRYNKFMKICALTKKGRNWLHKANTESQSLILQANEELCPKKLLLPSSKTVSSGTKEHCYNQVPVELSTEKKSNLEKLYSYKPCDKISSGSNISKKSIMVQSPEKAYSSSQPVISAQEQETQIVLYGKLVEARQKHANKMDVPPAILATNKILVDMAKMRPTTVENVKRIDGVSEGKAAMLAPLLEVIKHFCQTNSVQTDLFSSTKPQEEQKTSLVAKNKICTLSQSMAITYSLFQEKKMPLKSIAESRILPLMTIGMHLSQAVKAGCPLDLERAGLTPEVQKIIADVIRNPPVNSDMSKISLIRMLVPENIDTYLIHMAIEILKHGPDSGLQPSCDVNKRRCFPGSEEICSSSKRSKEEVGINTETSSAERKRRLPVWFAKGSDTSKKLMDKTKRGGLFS

{"molecule": "CCc1c(N2CCN(C(=O)c3ncccc3O)CC2)c(=O)n2nc(C3=CCN(C(=O)CCCCCOc4ccc5c(c4)C(=O)N(C4CCC(=O)NC4=O)C5)CC3)nc2n1CC(=O)Nc1ccc(C(F)(F)F)cc1C (stereo not shown)", "IC50": "0.09 µM"}

Measured values drawn from patent US20240197715A1 for this set.
